Each recorded value in this set is attributed to paper PMC3218832.

Molecular target: C-Rel subunit;p52 subunit (Homo sapiens;Homo sapiens, UniProt Q04864;Q00653 1-285;4-332)
Sequence 1: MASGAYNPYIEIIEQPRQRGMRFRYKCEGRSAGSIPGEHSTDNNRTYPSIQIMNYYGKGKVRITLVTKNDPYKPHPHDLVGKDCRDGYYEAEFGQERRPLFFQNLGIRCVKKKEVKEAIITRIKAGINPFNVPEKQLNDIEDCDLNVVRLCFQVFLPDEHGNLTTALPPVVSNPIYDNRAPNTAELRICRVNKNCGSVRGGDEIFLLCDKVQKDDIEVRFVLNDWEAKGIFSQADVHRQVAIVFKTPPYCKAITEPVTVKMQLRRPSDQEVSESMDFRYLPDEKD
Sequence 2: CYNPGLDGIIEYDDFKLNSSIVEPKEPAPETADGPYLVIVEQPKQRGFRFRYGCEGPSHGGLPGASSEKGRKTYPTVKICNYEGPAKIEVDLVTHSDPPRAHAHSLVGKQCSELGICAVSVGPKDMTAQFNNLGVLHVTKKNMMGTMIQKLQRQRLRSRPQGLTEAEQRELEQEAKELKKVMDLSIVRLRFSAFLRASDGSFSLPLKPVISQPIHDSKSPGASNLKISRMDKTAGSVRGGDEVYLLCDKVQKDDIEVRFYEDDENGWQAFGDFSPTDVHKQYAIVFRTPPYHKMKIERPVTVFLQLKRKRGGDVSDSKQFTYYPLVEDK
Assay: protein binding microarray; high values mean tight binding
Details: dsDNA, one strand shown
Kindly state binding signal for each of the entries shown.
Report the value in z-score with no unit label.

Task item: Give binding signal (C-Rel subunit;p52 subunit (Homo sapiens;Homo sapiens, UniProt Q04864;Q00653 1-285;4-332)) of the following sequence: `GGGGTGATCCC`
Reply: 0.91

Task item: Short answer please: binding signal, C-Rel subunit;p52 subunit (Homo sapiens;Homo sapiens, UniProt Q04864;Q00653 1-285;4-332), entry `GGGGACACCCC`
Reply: 2.35

Task item: Reported binding signal for C-Rel subunit;p52 subunit (Homo sapiens;Homo sapiens, UniProt Q04864;Q00653 1-285;4-332), given `AAGGGTGCCCT` ?
Reply: -0.646

Task item: Lookup: binding signal / C-Rel subunit;p52 subunit (Homo sapiens;Homo sapiens, UniProt Q04864;Q00653 1-285;4-332) / `CAAGGTACCCT`
Reply: -0.57

Task item: What value of binding signal on C-Rel subunit;p52 subunit (Homo sapiens;Homo sapiens, UniProt Q04864;Q00653 1-285;4-332) does `CAAGTCACCCC` have?
Reply: -0.366

Task item: Form: Entry = `CGGTTCCCCCC` | System = C-Rel subunit;p52 subunit (Homo sapiens;Homo sapiens, UniProt Q04864;Q00653 1-285;4-332) | binding signal = ____
Reply: 1.73

Task item: Short answer please: binding signal, C-Rel subunit;p52 subunit (Homo sapiens;Homo sapiens, UniProt Q04864;Q00653 1-285;4-332), entry `CGAGGAATCCT`
Reply: -0.613

Task item: Param readout= binding signal; system= C-Rel subunit;p52 subunit (Homo sapiens;Homo sapiens, UniProt Q04864;Q00653 1-285;4-332); entry= `AAAATACCCCT` ; returns value.
Reply: 1.95

Task item: Record lookup: for C-Rel subunit;p52 subunit (Homo sapiens;Homo sapiens, UniProt Q04864;Q00653 1-285;4-332), what binding signal belongs to `AGATGTTTCCC` ?
Reply: 0.783

Task item: Request: binding signal, test system C-Rel subunit;p52 subunit (Homo sapiens;Homo sapiens, UniProt Q04864;Q00653 1-285;4-332), entry `AAAAAGGTCCC`
Reply: 0.157

Task item: Item: `AAATGCTTCCC` Test system: C-Rel subunit;p52 subunit (Homo sapiens;Homo sapiens, UniProt Q04864;Q00653 1-285;4-332) Read-out: binding signal Value: ?
Reply: -0.384

Task item: Give the reported binding signal for `GGAGGGATCCT` (system: C-Rel subunit;p52 subunit (Homo sapiens;Homo sapiens, UniProt Q04864;Q00653 1-285;4-332)).
Reply: -0.454

Task item: Which binding signal is reported with C-Rel subunit;p52 subunit (Homo sapiens;Homo sapiens, UniProt Q04864;Q00653 1-285;4-332) for this entry: `GAAGTTGTCCT` ?
Reply: -0.642

Task item: What is its binding signal for C-Rel subunit;p52 subunit (Homo sapiens;Homo sapiens, UniProt Q04864;Q00653 1-285;4-332)? Entry: `CAAGAGATCCT`
Reply: -1.16

Task item: Query binding signal on C-Rel subunit;p52 subunit (Homo sapiens;Homo sapiens, UniProt Q04864;Q00653 1-285;4-332) for `CAATTATCCCC`
Reply: 0.884

Task item: What reported binding signal corresponds to `CGGTGGTTCCT` on C-Rel subunit;p52 subunit (Homo sapiens;Homo sapiens, UniProt Q04864;Q00653 1-285;4-332)?
Reply: 0.719

====

Exercise: for every item that follows, state its recorded binding signal.
target: p50p50 homodimer (Homo sapiens, UniProt P19838 7-356); experiment: protein binding microarray; high values mean tight binding; settings: dsDNA, one strand shown
Sequence (P19838 7-356): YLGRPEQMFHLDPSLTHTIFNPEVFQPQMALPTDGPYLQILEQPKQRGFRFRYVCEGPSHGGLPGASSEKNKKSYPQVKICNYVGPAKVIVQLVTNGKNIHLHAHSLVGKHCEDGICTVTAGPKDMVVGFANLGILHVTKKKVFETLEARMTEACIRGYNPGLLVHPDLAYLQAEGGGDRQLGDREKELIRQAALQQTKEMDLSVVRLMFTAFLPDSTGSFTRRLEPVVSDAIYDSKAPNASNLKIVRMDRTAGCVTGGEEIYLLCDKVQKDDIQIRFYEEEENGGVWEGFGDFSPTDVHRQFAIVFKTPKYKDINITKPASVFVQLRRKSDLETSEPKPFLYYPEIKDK
Kindly provide the numeric value in z-score only, without the unit symbol.

Task item: Endpoint output: binding signal of `AAGTGTATCCC` . Value?
Reply: -0.719

Task item: Given the sequence `GGGATGGCCCC` , what is its reported binding signal?
Reply: 0.31

Task item: Entry `CAAGAGGTCCC` has what binding signal?
Reply: -0.219

Task item: Name the reported binding signal value associated with the sequence `CAGTTACTCCT`
Reply: -1.22

Task item: Please look up its binding signal: `GGAGAACCCCC`
Reply: 1.01

Task item: What binding signal value was documented for this sequence, `GGATAAATCCC` ?
Reply: 0.48

Task item: Look up binding signal: `GAAGGTCTCCT`
Reply: -2.58

Task item: Query (sequence): `GAGATAGTCCT` ; field requested: binding signal
Reply: -0.791

Task item: Entry `CAGGTGTTCCC` : reported binding signal = ?
Reply: 0.0166

Task item: Which binding signal value is on record for `CGAATGTCCCC` ?
Reply: 1.1

Task item: Which measured binding signal value corresponds to `AAAGGAACCCC` ?
Reply: 0.367

Task item: Can you look up the measured binding signal of `CAATGCACCCT` for me?
Reply: -0.555

Task item: Request the reported binding signal associated with `AAGGGCCCCCT`
Reply: 0.884

Task item: So what does the record say about binding signal for `GAAATTGCCCT` ?
Reply: -0.312

Task item: Looking for the measured binding signal of `CAGATAGCCCT` , can you help?
Reply: -1.02

Task item: Requested field: binding signal. Item: `CGGGGTTCCCC`
Reply: 0.899

Task item: Which binding signal value belongs to `CAATTGCTCCC` ?
Reply: -0.852

Task item: Recorded binding signal of `AGATAGTTCCC` , please.
Reply: -0.317

Task item: Field request: binding signal | item: `AAGTAGACCCT`
Reply: -0.785

Task item: Any idea what its binding signal is? The sequence is `CAAAAAGTCCC`
Reply: 1.2

Task item: I have this sequence here, `AGATTATCCCT` , and I need its recorded binding signal.
Reply: 0.543

Task item: Fill in: binding signal of `CAATACGCCCC` is ___
Reply: 0.196

Task item: Recorded binding signal of `GGAGGTATCCC` , please.
Reply: -1.01

Task item: // returns reported binding signal for input `GGGTAAGTCCT`
Reply: 0.161

Task item: Fill blank: measured binding signal of the sequence `GGAAGACTCCT` is ____.
Reply: -1.87
